Origin of measurements: patent EP3693362B1

# Tested on: HTL4 (Striga hermonthica, UniProt A0A0M4AMQ0)
# Sequence (A0A0M4AMQ0 1-271): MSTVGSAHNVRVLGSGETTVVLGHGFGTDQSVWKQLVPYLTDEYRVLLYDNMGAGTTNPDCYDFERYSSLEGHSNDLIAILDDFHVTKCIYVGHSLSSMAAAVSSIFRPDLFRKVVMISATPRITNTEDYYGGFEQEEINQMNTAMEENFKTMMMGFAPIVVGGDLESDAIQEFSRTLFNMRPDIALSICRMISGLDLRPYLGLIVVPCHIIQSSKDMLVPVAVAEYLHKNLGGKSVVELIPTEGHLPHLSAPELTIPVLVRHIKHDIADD
Quantity measured: IC50

[
  {
    "Compound": "CC1=CC(OC(=O)NCc2ccccc2)OC1=O (stereo not shown) [Comparison Compound 1, reference compound]",
    "IC50": "> 10 µM"
  }
]

Each compound below has a recorded value; state its IC50.
1. CC1=CC(OC=C2C(=O)OC3C4=C(CCCC4(C)C)CC23)OC1=O (stereo not shown) [5-Ddeoxystriqol, 5-deoxystrigol, reference compound]
2. CCCCOc1ccc(S(=O)(=O)N2CCN(C(=O)OC3C=C(C)C(=O)O3)CC2)cc1 (stereo not shown)

["0.3 µM", "> 10 µM"]

Entry CCCCOc1ccc(S(=O)(=O)N2CCN(C(=O)OC3C=CC(=O)O3)CC2)cc1 (stereo not shown) , IC50 reported as > 10 µM
